- tested.target: T1, human OX40 extracellular domain fused to the Fc portion of human IgG1 (hOX40:hFc) (human)
- T1 construct: Made in Tn5 insect cells; also called OX40-hIgG1; human OX40:hIgG1 fusion protein
- T1 sequence (chain, as listed by the source limits assumed): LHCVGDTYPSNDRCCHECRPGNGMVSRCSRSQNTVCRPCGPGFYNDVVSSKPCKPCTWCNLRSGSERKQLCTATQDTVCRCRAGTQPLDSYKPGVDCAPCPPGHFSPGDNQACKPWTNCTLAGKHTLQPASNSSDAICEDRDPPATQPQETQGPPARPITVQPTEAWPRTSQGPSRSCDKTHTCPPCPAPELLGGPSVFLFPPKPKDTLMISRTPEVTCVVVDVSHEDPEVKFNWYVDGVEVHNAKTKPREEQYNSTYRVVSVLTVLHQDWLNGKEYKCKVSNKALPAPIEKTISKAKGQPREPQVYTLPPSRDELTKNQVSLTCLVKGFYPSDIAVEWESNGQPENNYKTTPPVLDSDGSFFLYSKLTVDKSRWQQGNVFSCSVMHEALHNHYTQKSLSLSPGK
- test: ELISA, OX40L-FLAG binding to coated hOX40:hFc, anti-FLAG-HRP
reported.metric: percent inhibition of OX40L binding (%)
Number in %, nothing else.

Tell me the measured percent inhibition of OX40L binding of 112Z5 human anti-human OX40 monoclonal antibody (hybridoma ATCC No. PTA-7216) (antibody, V domains shown) VH: VVSTQSTGGGLVQPGRSLRLSCAASGFTLDDYGMHWVRQAPGKGLEWVSGISWNSDSIGYVDSVKGRFTISRDNAKNSLYLQMNSLRVEDTALYYCVKDISGWYSFDYWGQGTLVTVSS VL: EIVLTQSPATLSLSPGERATLSCRASQSVSSYLAWYQQKPGQAPRLLIYDASNRATGIPARFSGSGSGTDFTLTISSLEPEDFAVYYCQQRSNWPITFGQGTRLEIK , please. 67

Tell me the measured percent inhibition of OX40L binding of 112Y55 human anti-human OX40 monoclonal antibody (hybridoma ATCC No. PTA-7220) (antibody, V domains shown) VH: QITLKESGPTLVKPTQTLTLSCTFSGFSLSTSGVGVGWIRQPPGKALEWLALIHWDDAERYSPSLKSRLTITKDTSKNQVVLTMTNMDLVDTATYYCAHTRGAFDIWGQGTMVTVSS VL: EIVLTQSPGTLSLSPGERAILSCRASQSVSSSFLAWYQQKPGQAPRLLIYGAFSRATGIPDRFSGSGSGTDFTLTISRLEPEDFAVYYCQQYDSSRTFGQGTKVEIK , please. 85

Tell me the measured percent inhibition of OX40L binding of 112Y131 human anti-human OX40 monoclonal antibody (hybridoma ATCC No. PTA-7218) (antibody, V domains shown) VH: QITLKESGPTLVKPTQTLTLTCTFSGFSLSTSGVGVGWIRQPPGKALEWLALIYWDDHSPYSPSLKSRLTITKDTSKNQVVLTMTNMDPVDTATYYCARTRGAFDIWGQGTMVTVSS VL: EIVLTQSPATLSLSPGERATLSCRASQGVSSYLAWYQQKPGQAPRLLIYDASNRATGIPARFSGSGPGTDFTLTISSLEPEDFAVYYCQQRSNWHPTFGQGTKVEIK , please. 85
